- CONDITION: human gut metagenome, 24 h, 2 µM; also: call rule not given here

MOLECULE	Bacterial Biotransformation
CN(C/C=C/C#CC(C)(C)C)Cc1cccc2ccccc12	Compound NOT metabolized
CCOC(=O)[C@H](CCc1ccccc1)N[C@@H](C)C(=O)N1Cc2ccccc2C[C@H]1C(=O)O	Compound NOT metabolized
OC(c1cc(C(F)(F)F)nc2c(C(F)(F)F)cccc12)C1CCCCN1 (stereo unspecified)	Compound NOT metabolized
COc1ccc(C(CN(C)C)C2(O)CCCCC2)cc1 (stereo unspecified)	Compound NOT metabolized
COc1ccnc(C[S+]([O-])c2nc3ccc(OC(F)F)cc3[nH]2)c1OC (stereo unspecified)	Compound metabolized
CC1Cc2ccccc2N1NC(=O)c1ccc(Cl)c(S(N)(=O)=O)c1 (stereo unspecified) [INDAPAMIDE]	Compound NOT metabolized
CCN(CC)CCNC(=O)c1ccc(NC(C)=O)cc1 [ACECAINIDE]	Compound NOT metabolized
COC1=C(OC)C(=O)C(CCCCCCCCCCO)=C(C)C1=O	Compound metabolized
CC(C)(C)NC(=O)[C@H]1CC[C@H]2[C@@H]3CC[C@H]4NC(=O)C=C[C@]4(C)[C@H]3CC[C@]12C [FINASTERIDE]	Compound metabolized
O=C1CC2(CCCC2)CC(=O)N1CCCCN1CCN(c2ncccn2)CC1	Compound metabolized
CCOc1ccc2nc(S(N)(=O)=O)sc2c1 [ETHOXZOLAMIDE]	Compound NOT metabolized
CC#CCn1c(N2CCC[C@@H](N)C2)nc2c1c(=O)n(Cc1nc(C)c3ccccc3n1)c(=O)n2C	Compound NOT metabolized
CCOC(=O)C1=C(C)NC(C)=C(C(=O)OC)C1c1cccc([N+](=O)[O-])c1 (stereo unspecified)	Compound metabolized
c1ccc2[nH]c(-c3cscn3)nc2c1	Compound NOT metabolized
CNNCc1ccc(C(=O)NC(C)C)cc1	Compound metabolized
CN1CCN(C2=Nc3ccccc3Oc3ccc(Cl)cc32)CC1.O=C(O)CCC(=O)O [LOXAPINE SUCCINATE]	Compound NOT metabolized
CC(=O)OCC(CCn1cnc2cnc(N)nc21)COC(C)=O	Compound metabolized
CC#C[C@]1(O)CC[C@H]2[C@@H]3CCC4=CC(=O)CCC4=C3[C@@H](c3ccc(N(C)C)cc3)C[C@@]21C	Compound NOT metabolized
CN(C)CCOC(C)(c1ccccc1)c1ccccn1.O=C(O)CCC(=O)O (stereo unspecified) [DOXYLAMINE SUCCINATE]	Compound NOT metabolized
CCS(=O)(=O)CCn1c([N+](=O)[O-])cnc1C	Compound metabolized
CCN(CC)CCOC(=O)C1(C2CCCCC2)CCCCC1	Compound NOT metabolized
CCCN(CCC)CCc1cccc2c1CC(=O)N2	Compound NOT metabolized
CC(CCc1ccccc1)NCC(O)c1ccc(O)c(C(N)=O)c1 (stereo unspecified)	Compound metabolized
Br.CN1CCC[C@@H]1Cc1c[nH]c2ccc(CCS(=O)(=O)c3ccccc3)cc12 [ELETRIPTAN HYDROBROMIDE]	Compound metabolized
CN(C)CCOC(c1ccc(Cl)cc1)c1ccccn1.O=C(O)/C=C\C(=O)O (stereo unspecified) [CARBINOXAMINE MALEATE]	Compound NOT metabolized
COc1ccc2cc([C@H](C)C(=O)O)ccc2c1	Compound metabolized
CC(=O)OCC(=O)NCCCOc1cccc(CN2CCCCC2)c1 [ROXATIDINE ACETATE]	Compound metabolized
O=C1CN2Cc3c(ccc(Cl)c3Cl)N=C2N1 [ANAGRELIDE]	Compound metabolized
COc1ccc(Cc2nccc3cc(OC)c(OC)cc23)cc1OC	Compound metabolized
N#Cc1ccc2[nH]cc(CCCCN3CCN(c4ccc5oc(C(N)=O)cc5c4)CC3)c2c1	Compound metabolized
OCCN(CCO)c1nc(N2CCCCC2)c2nc(N(CCO)CCO)nc(N3CCCCC3)c2n1	Compound metabolized
COC(=O)[C@H](c1ccccc1Cl)N1CCc2sccc2C1.O=S(=O)(O)O [CLOPIDOGREL BISULFATE]	Compound metabolized
CSc1ccc2c(c1)C(N1CCN(C)CC1)Cc1ccccc1S2.O=C(O)/C=C\C(=O)O (stereo unspecified)	Compound NOT metabolized
O=C1C(CC[S+]([O-])c2ccccc2)C(=O)N(c2ccccc2)N1c1ccccc1 (stereo unspecified)	Compound metabolized
N[C@@H](Cc1ccc(N(CCCl)CCCl)cc1)C(=O)O	Compound NOT metabolized
Nc1nc(NC2CC2)c2ncn([C@H]3C=C[C@@H](CO)C3)c2n1.Nc1nc(NC2CC2)c2ncn([C@H]3C=C[C@@H](CO)C3)c2n1.O=S(=O)(O)O [ABACAVIR SULFATE]	Compound metabolized

Ref: ChEMBL document CHEMBL5724914
